The reported measurements were obtained from BindingDB's records for patent US20230286970.

# Measurement Target: Histone deacetylase 6 (Homo sapiens)
# Sequence (Q9UBN7 whole entry): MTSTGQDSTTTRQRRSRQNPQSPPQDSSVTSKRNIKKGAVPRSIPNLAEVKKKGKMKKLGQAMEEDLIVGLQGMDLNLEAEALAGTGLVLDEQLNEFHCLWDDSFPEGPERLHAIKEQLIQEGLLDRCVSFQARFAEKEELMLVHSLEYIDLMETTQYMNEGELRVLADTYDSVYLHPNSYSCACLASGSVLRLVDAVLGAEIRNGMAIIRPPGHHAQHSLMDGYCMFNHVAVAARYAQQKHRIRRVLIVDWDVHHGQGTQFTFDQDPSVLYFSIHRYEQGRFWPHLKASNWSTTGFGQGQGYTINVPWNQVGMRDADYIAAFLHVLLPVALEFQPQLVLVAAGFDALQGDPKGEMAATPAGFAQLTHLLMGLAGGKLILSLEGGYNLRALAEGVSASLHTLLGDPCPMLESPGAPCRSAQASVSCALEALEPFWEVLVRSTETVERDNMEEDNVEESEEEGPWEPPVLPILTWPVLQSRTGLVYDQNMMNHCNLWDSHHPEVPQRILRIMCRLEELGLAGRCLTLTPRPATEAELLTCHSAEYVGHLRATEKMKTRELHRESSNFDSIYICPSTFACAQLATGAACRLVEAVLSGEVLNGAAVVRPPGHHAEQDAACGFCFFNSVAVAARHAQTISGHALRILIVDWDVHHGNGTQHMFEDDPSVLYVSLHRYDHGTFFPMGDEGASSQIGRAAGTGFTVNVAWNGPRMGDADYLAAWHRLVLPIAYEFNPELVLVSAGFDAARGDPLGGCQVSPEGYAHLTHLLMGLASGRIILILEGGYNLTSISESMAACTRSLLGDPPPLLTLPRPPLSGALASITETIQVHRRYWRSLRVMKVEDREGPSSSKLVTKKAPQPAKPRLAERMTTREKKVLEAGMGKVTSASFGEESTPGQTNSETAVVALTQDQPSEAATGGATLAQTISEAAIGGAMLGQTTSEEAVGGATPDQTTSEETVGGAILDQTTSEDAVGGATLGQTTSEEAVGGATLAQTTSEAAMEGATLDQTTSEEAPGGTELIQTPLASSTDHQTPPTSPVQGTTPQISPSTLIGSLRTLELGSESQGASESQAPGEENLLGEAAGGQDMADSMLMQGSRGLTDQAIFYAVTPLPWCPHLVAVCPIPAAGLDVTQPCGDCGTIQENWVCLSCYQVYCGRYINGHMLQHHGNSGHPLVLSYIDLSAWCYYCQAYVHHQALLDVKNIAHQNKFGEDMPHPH
Entries and their measured IC50 follow.
Kindly provide the numeric value in nM only, without the unit symbol.

// worked examples, IC50 included
NC(=O)c1cccc(-c2nnn(Cc3ccc(-c4nnc(C(F)F)o4)cn3)n2)c1    10
Nc1ccc(-c2cn(Cc3ccc(-c4nnc(C(F)F)o4)cc3)nn2)cn1    23

Here is another molecule to look at.
Lookup: Item under review: Nc1ccc(-n2cc(Cc3ccc(-c4nnc(C(F)F)o4)cc3)nn2)cn1 . Reported IC50?
Found: 515
